// data source = PubChem BioAssay (NCI)

System: IGROV1 ovarian
Assay: NCI-60 one-dose screen, 48 h
Conditions: 10 µM unless noted
Procedure: Growth inhibition of the IGROV1 human tumor cell line is measured as a screen for anti-cancer activity. Cells are grown in 96 well plates and exposed to the test compound for 48 hours. Compounds are tested at a single concentration, which is 10^-5 M for most compounds. The reported endpoint is percent growth (GI% or GIPRCNT), where numbers from 0 - 100% represent growth inhibition, and numbers from -100% - 0 represent cell death. For example, a value of 40 represents 60% growth inhibition. […]
About 83,000 compounds went through this panel and 20% of them were active in at least one assay; those are over-represented in the sample as a whole. Active and inactive are the calls of the source. How the source made its calls: active means growth percent below 10; inactive means the rest.
Form entry, call: pick from TRUE for active, FALSE for inactive

Answered examples (5):
>  <Compound>
CCOC(=O)C1=NN(c2ccc(Cl)cc2)C2C3N(c4ccc(Cl)cc4)N=C(C(=O)OCC)N3c3ccccc3N12 (centres undefined)

>  <Cat>
FALSE

$$$$
>  <Compound>
Fc1ccc(-c2nnc(/C=C/c3cn(-c4ccccc4)nc3-c3ccccc3)o2)cc1

>  <Cat>
FALSE

$$$$
>  <Compound>
CC1=C(C(=O)Nc2ccccc2)C(c2ccc3c(c2)OCCO3)NC(=O)N1 (centres undefined)

>  <Cat>
FALSE

$$$$
>  <Compound>
CCN(CC)CCCCNc1c2ccccc2[n+](C)c2c1[nH]c1ccccc12

>  <Cat>
TRUE

$$$$
>  <Compound>
Cc1cc(CC(=O)O)n(C)c1C(=O)c1ccc(Cl)cc1

>  <Cat>
FALSE

$$$$

What outcome does the record of this test show for CCOC(Cc1c(N)[nH]c(=S)[nH]c1=O)OCC ?
FALSE

Next compound up: O=C1c2nsnc2C(=O)c2c(F)c(F)c(F)c(F)c21
TRUE

* * *

system: MOLT-4 leukemia; test: NCI-60 one-dose screen, 48 h (100 = growth as untreated, 0 = no growth, -100 = all killed); details: 10 µM unless noted
The panel holds about 83,000 compounds, 20% with a hit somewhere; the sample as a whole holds those more often.
Endpoint: growth (%)
One number for each entry, in %.

>  <Smiles str>
COc1ccc(-c2c(-c3cc(OC)c(OC)c(OC)c3)noc2N)cc1

>  <growth / %>
13

$$$$

Hello, I would appreciate it if you could give growth for each entry below.
1. CCCCCCC/C(=N\N=C(N)N)c1ccc(O)cc1
2. COc1ccc(-c2cc(C(=O)Nc3nc4cc(C)c(C)cc4s3)nc3cc(-c4ccccc4)nn23)cc1OC
3. O=Cc1c[nH]c2ccc(NC(=O)OCc3ccccc3)cc12

24.9
98.7
152

// input: 3 compounds below; output: growth for each
1. CSC1=Nc2c(c(C)c(-c3ccccc3)n2CCCN2CCCCC2)C2=NC(=O)C[C@H](C)N12
2. COc1ccc(Nc2ccnc(NCCCNc3ccnc4cc(Cl)ccc34)n2)cc1
3. O=C(Nc1ncc([N+](=O)[O-])s1)c1cccc([N+](=O)[O-])c1

[67.6, -21.1, 27.8]

* * *

tested on: A498 renal; assay: NCI-60 one-dose screen, 48 h; conditions: 10 µM unless noted
About 83,000 compounds went through this panel and 20% of them were active in at least one assay; those are over-represented in the sample as a whole. Activity calls are given as the source filed them. Rule for the calls: active = growth percent below 10; inactive = the rest.
Write down the outcome that applies. Available outcomes: active, inactive

>  <Molecule>
COc1cc(Oc2cc(-c3cccnc3)ccc2NC(=O)Nc2ccc(F)cc2F)cc(OC)c1OC

>  <Tested on>
A498 renal

>  <Cat>
inactive

$$$$
>  <Molecule>
COc1cc2c(cc1OCCCCCn1c(-c3ccc(OCc4ccccc4)cc3)nc3cc(N4CCOCC4)ccc31)N=C[C@@H]1CCCN1C2=O

>  <Tested on>
A498 renal

>  <Cat>
active

$$$$
>  <Molecule>
COc1ccc(-c2nnc(COc3ccc(NC(=O)Nc4cc(C(F)(F)F)cc(C(F)(F)F)c4)cc3F)o2)cc1

>  <Tested on>
A498 renal

>  <Cat>
active

$$$$

Per the assay record, what outcome was assigned to CCN(CC)CCOc1ccccc1-n1c(C)ccc1-c1ccccc1 ?
inactive

Now the same for O=[N+]([O-])c1ccc(Oc2cccc(C(F)(F)F)c2)c([N+](=O)[O-])c1
inactive

Next entry: Cc1ccc2c(c1)O/C(=C\c1ccc([N+](=O)[O-])o1)C2=O
inactive

And what about the molecule CCCCC(C#N)C(N)=O (stereo not drawn) ?
inactive

* * *

Please go through the items and note down their growth.
tested on: SNB-19 CNS; assay: NCI-60 one-dose screen, 48 h (100 = growth as untreated, 0 = no growth, -100 = all killed); conditions: 10 µM unless noted
About 83,000 compounds went through this panel and 20% of them were active in at least one assay; those are over-represented in the sample as a whole.
Give bare numbers, in %.

Here's what some known entries look like.
>  <Smiles str>
CCc1ccc(CCN2C(=O)c3ccccc3C2=O)nc1

>  <Tested on>
SNB-19 CNS

>  <Measured result>
91.7

$$$$
>  <Smiles str>
NC(=O)SCC(=O)Nc1ccccc1-c1ccccc1

>  <Tested on>
SNB-19 CNS

>  <Measured result>
89.5

$$$$

Dear colleague, could you please provide growth for the compounds listed below?
1. COc1ccc(Nc2nccc(N3CCN(c4c5ccc(Cl)cc5nc5ccc(OC)cc45)CC3)n2)cc1
2. Cn1c(=O)c2nc(SCc3ccccc3)n(C)c2n(C)c1=O

[92.2, 89.4]

* * *

system: HCC-2998 colon; test: NCI-60 one-dose screen, 48 h; settings: 10 µM unless noted
The panel holds about 83,000 compounds, 20% with a hit somewhere; the sample as a whole holds those more often. The source made the active and inactive calls. The calls were made as follows: active = growth percent below 10; inactive = the rest.
Allowed answers: active, inactive

>  <Compound>
COc1cc(C(=O)/C=C/c2cccnc2Nc2ccccc2)cc(OC)c1OC

>  <Tested on>
HCC-2998 colon

>  <Cat>
active

$$$$
>  <Compound>
Cc1nn(-c2ccccc2)c2nc(Cl)c(/C=C/C(=O)c3ccccc3)c(-c3ccccc3)c12

>  <Tested on>
HCC-2998 colon

>  <Cat>
inactive

$$$$
>  <Compound>
C[C@@H]1CC[C@H]2[C@@H](C)C(O)O[C@@H]3O[C@]4(C)CC[C@@H]1[C@]32OO4 (some centres undefined)

>  <Tested on>
HCC-2998 colon

>  <Cat>
inactive

$$$$

Please look at the following compound next.
Please state the recorded outcome for this compound: CCOC(=O)/C=C(/C)Sc1cc(O)c2ccccc2c1O
inactive

* * *

system: OVCAR-3 ovarian; assay: NCI-60 one-dose screen, 48 h; conditions: 10 µM unless noted
About 83,000 compounds went through this panel and 20% of them were active in at least one assay; those are over-represented in the sample as a whole. The source made the active and inactive calls. Rule for the calls: active = growth percent below 10; inactive = the rest.
The reply should name one outcome from active, inactive

Take a look at these entries with their results.
>  <Compound>
N#CCCCCCn1c2ccccc2c2c3c(c4c5ccccc5[nH]c4c21)C(=O)N(O)C3=O

>  <Cat>
active

$$$$
>  <Compound>
O=C(Nc1ncc([N+](=O)[O-])s1)c1cccc([N+](=O)[O-])c1

>  <Cat>
inactive

$$$$

Please indicate how the test categorized O=C1/C(=C/c2ccc([N+](=O)[O-])s2)Oc2ccc(Br)cc21 .
active

Entry to check: Clc1cc(Cl)c(OCC#CI)cc1Cl
active

// same read-out, input: N#Cc1cnc2cc(OC[C@H](O)CO)c(NC(=O)CC3CSSC3)cc2c1Nc1ccc(OCc2cccc(F)c2)c(Cl)c1
active

Now the same for Cn1cc(-c2csc(-c3cn(C)c4ncccc34)n2)c2cccnc21
inactive

Same read-out for O=C1CN(CO)C(=O)CN1CO ?
inactive

Next compound: Cc1cc(C)c(OC(=O)CSc2nc3ccccc3c(=O)n2CCc2ccccc2)cc1C
inactive

Note, next up: CCC(C)CC(C)C(=O)c1c(O)ccn(OC)c1=O (stereo not drawn)
inactive

* * *

Tested on: NCI-H23 lung
Experiment: NCI-60 one-dose screen, 48 h (100 = growth as untreated, 0 = no growth, -100 = all killed)
Settings: 10 µM unless noted
Protocol: Growth inhibition of the NCI-H23 human Non-Small Cell Lung tumor cell line is measured as a screen for anti-cancer activity. Cells are grown in 96 well plates and exposed to the test compound for 48 hours. Compounds are tested at a single concentration, which is 10^-5 M for most compounds. The reported endpoint is percent growth (GI% or GIPRCNT), where numbers from 0 - 100% represent growth inhibition, and numbers from -100% - 0 represent cell death. […]
The panel holds about 83,000 compounds, 20% with a hit somewhere; the sample as a whole holds those more often.
Please use Satisfied for growth under 80% and Not satisfied for everything else, ties included.

Solved entries:
>  <Molecule>
Cn1cc(-c2csc(-c3c[nH]c4ncccc34)n2)c2cc(F)cnc21

>  <Cat>
Satisfied

$$$$
>  <Molecule>
Clc1cc(Cl)c(OCC#CI)cc1Cl

>  <Cat>
Not satisfied

$$$$
>  <Molecule>
O=c1ccn(C2OC(CO)C(O)C2F)c(=O)[nH]1 (stereo not drawn)

>  <Cat>
Not satisfied

$$$$
>  <Molecule>
O=C1c2ccccc2-c2c1nc1ccccc1[n+]2[O-]

>  <Cat>
Not satisfied

$$$$
>  <Molecule>
Cc1ccc2c(c1)O/C(=C\c1ccc([N+](=O)[O-])o1)C2=O

>  <Cat>
Satisfied

$$$$
>  <Molecule>
CO[C@H]1/C=C/O[C@@]2(C)Oc3c(C)c(O)c4c(O)c(c(/C=N/N5C(C)CN(Cc6ccccc6)CC5C)c(O)c4c3C2=O)NC(=O)/C(C)=C\C=C\[C@H](C)[C@H](O)[C@@H](C)[C@@H](O)[C@@H](C)[C@H](OC(C)=O)[C@@H]1C (stereo partly drawn)

>  <Cat>
Satisfied

$$$$
>  <Molecule>
O=C(Nc1cccc([N+](=O)[O-])c1)c1cccc(C(=O)Nc2cccc([N+](=O)[O-])c2)c1

>  <Cat>
Not satisfied

$$$$
>  <Molecule>
COc1cc(OC)c2cc(C(=O)O)c(=O)oc2c1

>  <Cat>
Not satisfied

$$$$
>  <Molecule>
O=C(C(=O)N1CCOCC1)c1ccc(OC2OC(CO)C(O)C(O)C2O)cc1 (stereo not drawn)

>  <Cat>
Not satisfied

$$$$
>  <Molecule>
CO[C@H]1CC(O[C@@H]2/C(C)=C/C[C@@H]3C[C@@H](C[C@]4(CC[C@H](C)[C@@H](C5CCCCC5)O4)O3)OC(=O)[C@@H]3C=C(C)/C(=N/O)[C@H]4OC/C(=C\C=C\[C@@H]2C)[C@]43O)O[C@@H](C)C1O (stereo partly drawn)

>  <Cat>
Satisfied

$$$$

A record lists COc1ccc(-c2nc3sccn3c2-c2ccnc(S(C)(=O)=O)n2)cc1 . Is its growth below 80%?
Not satisfied

Now the same for Cc1scc2c1N(C(=O)CN1CCN(C)CC1)c1ccccc1NC2=O
Not satisfied
